Molecular target: T1, recombinant human ASM protein (human, UniProt P17405 47-630)
T1 construct: Recombinant human ASM in solution; also called acid sphingomyelinase (ASM) protein
T1 sequence: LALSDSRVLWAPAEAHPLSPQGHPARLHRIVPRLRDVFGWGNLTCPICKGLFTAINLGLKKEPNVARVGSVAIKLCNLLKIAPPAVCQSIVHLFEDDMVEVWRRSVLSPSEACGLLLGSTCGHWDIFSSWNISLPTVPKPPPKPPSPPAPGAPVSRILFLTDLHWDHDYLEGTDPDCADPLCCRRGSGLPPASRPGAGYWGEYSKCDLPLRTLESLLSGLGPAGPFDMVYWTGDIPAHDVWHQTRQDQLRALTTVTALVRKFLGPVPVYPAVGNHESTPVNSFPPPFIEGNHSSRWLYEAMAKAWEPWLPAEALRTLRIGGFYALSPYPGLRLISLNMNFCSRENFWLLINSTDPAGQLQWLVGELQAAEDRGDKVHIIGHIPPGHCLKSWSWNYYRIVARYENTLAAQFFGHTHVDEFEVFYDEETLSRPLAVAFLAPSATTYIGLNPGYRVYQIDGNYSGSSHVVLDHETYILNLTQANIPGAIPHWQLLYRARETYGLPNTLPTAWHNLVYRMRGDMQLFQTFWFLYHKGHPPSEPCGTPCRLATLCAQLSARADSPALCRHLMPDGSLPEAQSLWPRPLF
Assay: BLI (Octet), antibody on AHC sensor
pKd for assorted binders
Value format note: pKd is -log10 of concentration (mol/L); just state the number.

Check out these entries, answers already filled in.
#9104v-H17 (antibody, human IgG4 S228P, lambda, V domains shown, Full-length IgG, lambda) VH: EVQLLESGGGLVQPGGSLRLSCAASGFTFSNYYMSWVRRAPGKGLEWVSGIYYGSGTPYYAASVKGRFTISRDNSKNTLYLQMNSLRAEDTAVYYCARDTPGFDYWGQGTLVTVSS VL: QSVLTQPPSASGTPGQRVTISCTGSSSNIGNNAVNWYQQLPGTAPKLLIYYDSHRPSGVPDRFSGSKSGTSASLAISGLRSEDEADYYCGAWDYSLSAYVFGGGTKLTVLG ... 9.14
#9104v-H18 (antibody, human IgG4 S228P, lambda, V domains shown, Full-length IgG, lambda) VH: EVQLLESGGGLVQPGGSLRLSCAASGFTFSNYYMSWVRQAPGKGLEWVSGIYYGSGTPYYSDSVKGRFTISRDNSKNTLYLQMNSLRAEDTAVYYCARDTPGFDYWGQGTLVTVSS VL: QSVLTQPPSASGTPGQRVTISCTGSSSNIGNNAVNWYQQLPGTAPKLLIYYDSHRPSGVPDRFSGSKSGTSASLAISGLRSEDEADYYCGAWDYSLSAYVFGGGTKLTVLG ... 8.57
#9104v-H25 (antibody, human IgG4 S228P, lambda, V domains shown, Full-length IgG, lambda) VH: EVQLLESGGGLVQPGGSLRLSCAASGFTFSNYYMSWVRQAPGKGLEWVSGTYYASGGIYYADSVKGRFTISRDNSKNTLYLQMNSLRAEDTAVYYCARDTPGFDYWGQGTLVTVSS VL: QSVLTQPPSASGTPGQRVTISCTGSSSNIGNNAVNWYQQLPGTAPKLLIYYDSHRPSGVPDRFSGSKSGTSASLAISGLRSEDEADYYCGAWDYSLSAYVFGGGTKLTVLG ... 9.04

Record #9104v-H05 (antibody, human IgG4 S228P, lambda, V domains shown, Full-length IgG, lambda) VH: EVQLLESGGGLVQPGGSLRLSCAASGFTFSNYYMSWVRQAPGKGLEWVSGIYYGGVKIYYADSVKGRFTISRDNSKNTLYLQMNSLRAEDTAVYYCARDTPGFDYWGQGTLVTVSS VL: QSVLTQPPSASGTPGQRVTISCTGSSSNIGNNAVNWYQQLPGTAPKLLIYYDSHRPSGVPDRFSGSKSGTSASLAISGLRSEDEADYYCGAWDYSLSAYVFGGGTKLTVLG , field pKd: 8.99

Looking up #9104v-H11 (antibody, human IgG4 S228P, lambda, V domains shown, Full-length IgG, lambda) VH: EVQLLESGGGLVQPGGSLRLSCAASGFTFSNYYMSWVRQAPGKGLEWVSGIYYGSGIPYYADSVKERFTISRDNSKNTLYLQMNSLRAEDTAVYYCARDTPGFDYWGQGTLVTVSS VL: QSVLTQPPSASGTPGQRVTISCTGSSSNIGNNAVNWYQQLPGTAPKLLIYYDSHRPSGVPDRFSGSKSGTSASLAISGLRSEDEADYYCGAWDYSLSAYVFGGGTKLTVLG , I see its pKd listed as 9.11

# pKd of #9104v-H22 (antibody, human IgG4 S228P, lambda, V domains shown, Full-length IgG, lambda) VH: EVQLLESGGGLVQPGGSLRLSCAASGFTFSNYYMSWVRQAPGKGLEWVSGLYYGGGTPYYADSVKGRFTISRDNSKNTLYLQMNSLRAEDTAVYYCARDTPGFDYWGQGTLVTVSS VL: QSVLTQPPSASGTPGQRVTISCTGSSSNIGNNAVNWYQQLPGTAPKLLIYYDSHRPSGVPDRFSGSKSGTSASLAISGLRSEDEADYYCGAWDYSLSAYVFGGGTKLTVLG = 9.10

Item: #9104v-H31 (antibody, human IgG4 S228P, lambda, V domains shown, Full-length IgG, lambda) VH: EVQLLESGGGLVQPGGSLRLSCAASGFTFSNYYMSWVRQAPGKGLEWVSGVYYGSGTPYYADSVKGRFTISRDNSKNTLYLQMNSLRAEDTAVYYCARDTPGFDYWGQGTLVTVSS VL: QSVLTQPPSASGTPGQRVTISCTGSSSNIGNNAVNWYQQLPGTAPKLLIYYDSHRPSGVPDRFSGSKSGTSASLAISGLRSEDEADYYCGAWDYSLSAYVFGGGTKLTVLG | pKd: 9.27

get_value(item= #9104v-H30 (antibody, human IgG4 S228P, lambda, V domains shown, Full-length IgG, lambda) VH: EVQLLESGGGLVQPGGSLRLSCAASGFTFSNYYMSWVRQAPGKGLEWVSGTYYSSGGIYYADSVKGRFTISRDNSKNTLYLQMNSLRAEDTAVYYCARDTPGFDYWGQGTLVTVSS VL: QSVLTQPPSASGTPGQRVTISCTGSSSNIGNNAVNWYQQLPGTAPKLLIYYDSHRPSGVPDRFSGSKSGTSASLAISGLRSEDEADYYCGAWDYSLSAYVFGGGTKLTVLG , readout=pKd) returns 9.12

FYI, the data here is from patent US20260201064A1.
